Reference source for all entries: PubChem BioAssay (EPA / NIEHS)

Assay: IUF_NPC2-5_cytotoxicity_120hr: Cytotoxicity Assessment at 120 hours in the Leibniz Research Institute for Environmental Medicine (IUF) Neural Progenitor Cell Migration and Differentiation Assay (NPC2-5) (AID 2284307)
Activity calls are given as the source filed them. Rule for the calls: active = hit-call score of the fitted dose curve at least 0.9, where 1 is the maximum; inconclusive = response in the unintended direction; inactive = score below 0.9.
Give your call using only these classes: active, inactive

Check out these entries, answers already filled in.
# compound, label
measured = [
    ("CC1(C)C(C=C(Cl)c2ccc(Cl)cc2)C1C(=O)OC(C#N)c1ccc(F)c(Oc2ccccc2)c1 (stereo unspecified)", "inactive"),
    ("CC1(C)[C@H](C(=O)O[C@H](C#N)c2cccc(Oc3ccccc3)c2)[C@@H]1C=C(Br)Br", "inactive"),
    ("CCOP(=O)(Oc1cnc(C(C)(C)C)nc1)OC(C)C (stereo unspecified)", "inactive"),
    ("C[n+]1ccc(-c2ccccc2)cc1", "inactive"),
]

Please let me know the test result on file for Brc1ccc(Oc2cc(Br)c(Br)cc2Br)c(Br)c1 .
inactive

# fetch the recorded call for CCOP(=O)(OCC)SCSCC here
inactive

Returns: the outcome recorded for CC(C)CC(C)c1sccc1NC(=O)c1cn(C)nc1C(F)(F)F (stereo unspecified) in this assay.
inactive

Call for entry C/C(=C/C=C/[C@@H](C)C(=O)O)[C@H]1CN[C@H](C(=O)O)[C@H]1CC(=O)O :
inactive

Each compound tested received a call. Report the one for O=C1N[C@@H]2C(=C[C@H](O)[C@@H](O)[C@H]2O)c2cc3c(c(O)c21)OCO3 .
active

Assay result, entry COP(=O)(OC)SCN1C(=O)c2ccccc2C1=O — outcome?
inactive

Please let me know the test result on file for CC1(C)[C@H](C=C(Cl)Cl)[C@H]1C(=O)OCc1c(F)c(F)cc(F)c1F .
inactive

====

Read-out: Collagen III, COL3A1 (gene 1281)
Experiment: BSK_MyoF_CollagenIII: BioMAP Diversity Plus: MyoF Assay for Collagen III Biomarker Activity (AID 2284239)
Settings: primary human lung fibroblasts
Method: BSK_MyoF is a cell-based, multiplexed-readout assay that uses lung fibroblasts, […], with measurements taken at 24 hours after chemical dosing in a microplate: 96-well plate.BSK_MyoF_CollagenIII is an assay component measured in the BSK_MyoF assay. […] The levels of cell surface (or secreted, indicated by the prefix "s") biomarker endpoints were measured by ELISA. […] Plates were read after 6 h.
Activity calls are given as the source filed them. The calls were made as follows: active = hit-call score of the fitted dose curve at least 0.9, where 1 is the maximum; inactive = score below 0.9.
Classes to choose from: YES = active, NO = inactive

These solved cases illustrate the format of a correct answer.
# smiles-record, label
measured = [
    ("O=S(=O)(c1ccccc1)c1ccccc1", "NO"),
    ("CC(=O)/C=C/c1ccccc1", "NO"),
    ("COCC(=O)N(c1c(C)cccc1C)N1CCOC1=O", "NO"),
    ("O=C1C(Cl)=C(Cl)C(=O)C(Cl)=C1Cl", "YES"),
    ("c1ccc(Nc2ccc3ccccc3c2)cc1", "YES"),
]

// return assay outcome for O=c1[nH]c(Cl)c(Cl)cc1Cl
NO

====

Target: rat Oxytocin Receptor (OXT), Oxtr (gene 25342)
Experiment: NVS_GPCR_rOXT: NovaScreen (NVS) G Protein-Coupled Receptor Assay for rat Oxytocin Receptor (OXT) (AID 2283330)
Inconclusive results are not listed. Activity calls are given as the source filed them. The calls were made as follows: active = hit-call score of the fitted dose curve at least 0.9, where 1 is the maximum; inconclusive = response in the unintended direction; inactive = score below 0.9.
experimental-readout: AC50

# compound, AC50
records = [
    ("CCCCCCCCCC", "inactive"),
    ("CCCN(CCC)C(=O)SCC", "inactive"),
    ("Cc1occc1C(=O)Nc1ccc(C(=O)N2CCC(F)(F)/C(=C\\C(=O)N3CCC(N4CCCCC4)CC3)c3ccccc32)cc1", "0.119 µM (active)"),
    ("CN(C)c1ccc(C(=C2C=CC(=[N+](C)C)C=C2)c2ccc(N(C)C)cc2)cc1", "20.9 µM (active)"),
    ("CN(C[C@@H](CC[N+]12CCC(C3CCCCC3)(CC1)CC2)c1ccc(Cl)c(Cl)c1)C(=O)c1cc(C(F)(F)F)cc(C(F)(F)F)c1", "16.5 µM (active)"),
    ("COc1ccc2cc(S(=O)(=O)N[C@H](CC(=O)N[C@H](Cc3ccc(CN4[C@H](C)CCC[C@@H]4C)cc3)C(=O)N(C)C(C)C)c3ccc4c(c3)OCO4)ccc2c1", "inactive"),
]

Record AC50 per entry; entries follow.
1. CCOC(=O)COc1ccc2c(c1)CC(NCC(O)c1cccc(Cl)c1)CC2 (stereo unspecified)
2. CCCCOC(=O)CCCCCCCCC(=O)OCCCC
3. COc1ccc(S(=O)(=O)N2C(=O)[C@@](c3ccccc3OC)(N3C[C@H](O)C[C@H]3C(=O)N(C)C)c3cc(Cl)ccc32)c(OC)c1
4. O=C1OC(=O)C2C3C=CC(C3)C12 (stereo unspecified)
5. CCN(Cc1cccnc1)C(=O)c1cccc(Cl)c1[C@]1(C)C(=O)N(Cc2ccc(OC)cc2OC)c2ccc(Cl)cc21

1. inactive
2. inactive
3. 0.0663 µM (active)
4. inactive
5. 0.0728 µM (active)
